Biological target: mouse melanocortin-1 receptor (mouse, UniProt Q01727 1-315)
Sequence (Q01727 whole entry): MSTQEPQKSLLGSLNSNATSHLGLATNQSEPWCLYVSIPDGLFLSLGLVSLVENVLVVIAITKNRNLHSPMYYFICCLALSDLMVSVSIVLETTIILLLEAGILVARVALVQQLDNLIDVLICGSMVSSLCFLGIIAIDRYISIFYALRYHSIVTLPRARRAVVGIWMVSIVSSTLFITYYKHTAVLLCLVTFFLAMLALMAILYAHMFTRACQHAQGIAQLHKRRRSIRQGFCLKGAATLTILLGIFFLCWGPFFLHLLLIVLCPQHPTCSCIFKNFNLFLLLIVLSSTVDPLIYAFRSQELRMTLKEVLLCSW
Experiment: cell-based or functional assay
Square brackets hold non-standard residues; d marks the D form.
Measured Metric: % maximal NDP-MSH response at 100 µM (cAMP AlphaScreen) (%)
Value expressed in %; do not type the unit.

Below, each entry is followed by its recorded % maximal NDP-MSH response at 100 µM (cAMP AlphaScreen) result.
>  <Binder>
cyclo(PRFFNDF[dP]) (SMILES N=C(N)NCCC[C@@H]1NC(=O)[C@@H]2CCCN2C(=O)[C@H]2CCCN2C(=O)[C@H](Cc2ccccc2)NC(=O)[C@H](CC(=O)O)NC(=O)[C@H](CC(N)=O)NC(=O)[C@H](Cc2ccccc2)NC(=O)[C@H](Cc2ccccc2)NC1=O) [c[Pro-Arg-Phe-Phe-Asn-Asp-Phe-DPro]]

>  <Measured Number>
65

$$$$
>  <Binder>
cyclo(PRFFNFF[dP]) (SMILES N=C(N)NCCC[C@@H]1NC(=O)[C@@H]2CCCN2C(=O)[C@H]2CCCN2C(=O)[C@H](Cc2ccccc2)NC(=O)[C@H](Cc2ccccc2)NC(=O)[C@H](CC(N)=O)NC(=O)[C@H](Cc2ccccc2)NC(=O)[C@H](Cc2ccccc2)NC1=O) [c[Pro-Arg-Phe-Phe-Asn-Phe-Phe-DPro]]

>  <Measured Number>
70

$$$$
>  <Binder>
PRFFXAFP (head-to-tail cyclic; Dap at 5; DPro at 8) [c[Pro-Arg-Phe-Phe-Dap-Ala-Phe-DPro]]

>  <Measured Number>
30

$$$$

Enquiry: Specify reported % maximal NDP-MSH response at 100 µM (cAMP AlphaScreen) for the binder shown: cyclo(PRFFWAF[dP]) (SMILES C[C@@H]1NC(=O)[C@H](Cc2c[nH]c3ccccc23)NC(=O)[C@H](Cc2ccccc2)NC(=O)[C@H](Cc2ccccc2)NC(=O)[C@H](CCCNC(=N)N)NC(=O)[C@@H]2CCCN2C(=O)[C@H]2CCCN2C(=O)[C@H](Cc2ccccc2)NC1=O) [c[Pro-Arg-Phe-Phe-Trp-Ala-Phe-DPro]]
Return: 80
